- test protocol: compounds binding Alexa647 anti-His antibody – biochemical, small-molecule microarray, 635 nm fluorescence, artefact control for SMM control protein annotation, primary screen (AID 1128);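 note: score merges feature fluorescence with signal-to-noise for each printed compound spot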
- run conditions: higher = more signal
The entries below come with measured composite z-score values attached.
Respond using a number only.

{"columns": ["compound", "measured value"],
 "data": [
  ["COCC(=C=CC[C@@H](O)c1ccc(OCCO)cc1)C[C@@H](O)c1ccccn1", 2.32]
]}

Which composite z-score value belongs to CO[C@H]1O[C@H](CO)[C@@H](OC(=O)Nc2ccc(Br)cc2)[C@@H]2OC(=O)[C@H](Cc3cccc(Br)c3)C/C=C/C[C@@H](Cc3cccc(Br)c3)C(=O)O[C@@H]12 ?
0.144

For [N-]=[N+]=NCc1ccccc1C[C@@]1(C(=O)NCC(O)CO)N=C(c2ccc(OCCCO)cc2)O[C@@H]1c1ccccc1 (some centres not stated) , what is its reported composite z-score?
1.86

Report composite z-score for CCCCC(=C=CC[C@H](O)c1cccc(OCCO)c1)C[C@H](O)c1ccccn1 please.
0.536

Data request, read-out composite z-score, for CCOC(=O)C[C@H]1[C@H](OC(=O)c2ccc(C(=O)c3ccccc3)cc2)[C@@H](NC(=O)Cc2ccc(OC)cc2)c2cc(OCCCO)ccc2N1C(=O)c1ccc2ccccc2n1
0.325

Fill blank: measured composite z-score of the compound COc1cc2c(cc1O)C(c1cccs1)N(Cc1cccc(OC(F)(F)F)c1)CC2 (configuration not stated) is ____.
2.17

Which composite z-score value is on record for O=C1OCCC=C[C@H]2OC34C=CCN(CCN5CCOCC5)C(=O)[C@H]3N(CCCCCO)C(=O)[C@@H]4C12 (some centres not stated) ?
-0.166
